Assay target: T1, Krimper eTud2 (residues 562-746) (Drosophila melanogaster, UniProt A1ZAC4 562-746)
T1 chain: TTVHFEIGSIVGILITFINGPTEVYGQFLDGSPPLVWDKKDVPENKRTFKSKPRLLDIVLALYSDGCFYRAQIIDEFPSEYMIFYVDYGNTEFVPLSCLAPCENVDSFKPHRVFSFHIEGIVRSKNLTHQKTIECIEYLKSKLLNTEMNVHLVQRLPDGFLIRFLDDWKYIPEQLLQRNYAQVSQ
Measurement notes: ITC; R68me2
Where no end group is shown, it is not given here. [ ]: non-standard residue; d: D form. Arg(Me2s) = CN=C(NC)NCCC[C@H](N)C(=O)O
Reported property: Kd

| Binder | Obs value |
| --- | --- |
| NISVG[Arg(Me2s)]GRARLIDTLK [Ago3-2 peptide methylated at R68] | 6.67 µM |
